CC50 overview
System: MT4
Assay: Cytotoxicity against human MT4 cells assessed as reduction in cell viability after 3 days by CellTiter-Glo luminescent assay
Format: cell-based
Conditions: mt4, 72 h
propertyName: CC50

>  <smilesText>
CC(=O)O[C@H]1[C@@H](OC(C)=O)[C@@]2(C)[C@@H]3CC[C@H]4C(C)(C)[C@@H](O[C@@H]5OC[C@@H](O)[C@H](O)[C@H]5O)CC[C@@]45C[C@@]35CC[C@@]23CO[C@@](C)(CCC(=O)C(C)(C)O)[C@@H]13

>  <propertyName>
CC50

>  <valueMeasured>
> 30 µM

$$$$
>  <smilesText>
CC1(C)[C@@H](O[C@@H]2OC[C@@H](O)[C@H](O)[C@H]2O)CC[C@]23C[C@]24CC[C@]25CO[C@@]6(C(C)(C)O)CC[C@](C)(O6)[C@H]2[C@@H](O)[C@@H](O)[C@@]5(C)[C@@H]4CC[C@@H]13

>  <propertyName>
CC50

>  <valueMeasured>
> 40 µM

$$$$
